Target: NADPH oxidase 5 (Homo sapiens)
Assay: compounds shifting NOX5 Amplex Red fluorescence – cell-based, HEK293-NOX5, NOX inhibitor project, primary screen (AID 1161)
Settings: HEK293-NOX5, ionomycin, 45 min, higher = more signal
measure_name: z-score
Numbers only.

Some solved entries appear below for comparison.
| compound | measurement |
| --- | --- |
| CC(C)N1CC=CC23O[C@@H]4C=CCCOC(=O)C4[C@H]2C(=O)N(CCCO)[C@@H]3C1=O (stereo partly drawn) | -2.78 |
| CCCCN1CC=CC23O[C@@H]4/C=C\CCCOC(=O)C4[C@H]2C(=O)N(CCO)[C@@H]3C1=O (stereo partly drawn) | 1.5 |
| CC1CC/C=C\[C@H]2OC34C=CCN(c5ccc(Cl)cc5)C(=O)[C@H]3N(C(C)CO)C(=O)[C@]4(C)C2C(=O)O1 (stereo partly drawn) | 1.17 |
| [N-]=[N+]=Nc1ccccc1[C@@H]1OC(c2ccc(OCCCO)cc2)=N[C@]1(Cc1ccccc1)C(=O)N1CCCCC1 | -1.77 |
| C=CC[C@@]1(C(=O)NCCCOC)N=C(c2ccc(OCCCO)cc2)O[C@@H]1c1ccccc1 | 0.754 |
| O=C1C2C=CC(C(O)c3ccco3)N(Nc3ccccc3F)C2C(=O)N1c1ccccc1 (stereo not drawn) | -1.64 |

Below are 2 compounds. Give each one its z-score.
1. CCCCC(CC)C(O)C1C=CC2C(=O)N(c3ccccc3)C(=O)C2N1Nc1ccc(C#N)cc1 (stereo not drawn)
2. C=CCC(OC(C)=O)[C@@H]1[C@@H](N(Cc2ccc(-c3cccc(C(F)(F)F)c3)o2)C(=O)c2ccc(-c3ccccc3)cc2)c2cc(OCCCO)ccc2N1C(=O)Cc1ccc2ccccc2c1 (stereo partly drawn)

1: -1.91; 2: -0.791

----------
Assay: forskolin-driven CRE-LacZ activity in PC12 – cell-based, CRE-LacZ reporter, forskolin-stimulated, primary screen (AID 1146);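 note: PC12 cells with 6xCRE LacZ reporter stimulated by forskolin 10 µM; beta-galactosidase reporter signal reflecting CREB driven transcription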
Details: luminescence, 4.5 h, higher = more signal, called active from +8 up or from −8 down
Mark NO for z-score values under -0.07, and YES for everything at or above.

Reference set (6 entries):
| molecule | label_value |
| --- | --- |
| O=C1O[C@@H](c2ccccc2)[C@@H](c2ccccc2)N2[C@@H](c3ccc(OCCO)cc3)[C@]3(C(=O)Nc4ccc(C#CC5=CCCCC5)cc43)[C@@H](C(=O)NC[C@H](O)c3ccccc3)[C@H]12 | NO |
| CCCCCCCCCCC(O)C1C=CC2C(=O)N(c3ccccc3)C(=O)C2N1Nc1ccc(C#N)cc1 (stereo unspecified) | YES |
| CC[C@@H]1O[Si](C(C)C)(C(C)C)c2c1cc(-c1cc(C)c(OC)c(C)c1)nc2-c1ccc(Oc2ccccc2)cc1 | YES |
| CCCCC(=C=CC[C@H](O)c1ccc(OCCO)cc1)CCO | YES |
| O[C@@H](Cc1ccccc1)[C@@H](/C=C/C1CC1)N(CC#Cc1ccccc1)Cc1ccccc1Br | YES |
| CC(c1ccccc1)C(O)C1C=CC2C(=O)N(C)C(=O)C2N1Nc1ccccc1 (stereo unspecified) | NO |

Exam item: decide whether the reported z-score for COC(=O)C1=CC(CCCO)=CC(c2cccs2)N(C)C=C1C(=O)OC (stereo unspecified) is at least -0.07. NO

Entry Cc1cc(C)c(C(O)C2C=CC3C(=O)N(c4ccccc4)C(=O)C3N2Nc2ccccc2F)c(C)c1 (stereo unspecified) : is its z-score no less than -0.07? NO

State whether the measured z-score reaches -0.07, counting equality as reaching it, for `CO[C@H]1O[C@H](CO)[C@@H](OC(=O)Nc2ccccc2)[C@H](OC(=O)c2cc3ccccc3[nH]2)[C@H]1OC(=O)c1cc2ccccc2[nH]1` NO

Assess whether reported z-score for N#Cc1ccc(NN2C(C(O)c3ccc(Br)cc3)C=CC3C(=O)N(c4ccccc4)C(=O)C32)cc1 (stereo unspecified) sits at -0.07 or higher. NO

Does the reported z-score for CC(C)c1ccc(NN2C(C(O)c3ccc(C#N)cc3)C=CC3C(=O)N(c4ccccc4)C(=O)C32)cc1 (stereo unspecified) fall at or above the -0.07 mark? YES

Does the reported z-score for `C=C(COC)/C(=C/C[C@H](OC(=O)c1ccncc1)c1ccccc1OCCO)c1cc(C(=O)OC)ccc1OC` fall at or above the -0.07 mark? YES
